Target: recombinant human IL-17AA (Homo sapiens)
Sequence (Q16552 24-155): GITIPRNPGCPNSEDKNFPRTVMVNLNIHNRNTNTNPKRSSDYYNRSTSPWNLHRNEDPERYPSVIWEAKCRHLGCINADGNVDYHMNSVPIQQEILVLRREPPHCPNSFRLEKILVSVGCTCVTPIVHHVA
Assay: IL-6 release from NHDF cells, IL-17AA plus TNF-α stimulation
Type: cell-based
Conditions: IL17AA + TNF IC50 IL-6, NHDF cells, IL-17AA 30 pM plus TNF-α 6 pM, 24 hours, IL-6 by ELISA
endpointName: pIC50
Please report pIC50 as the negative decimal logarithm of the molar concentration, giving only the number.

Use these answered entries as a reference point.
1. Cc1c(-c2ccc(NC(=O)C(NC(=O)c3ccnn3C)C3CC4C(C3)C4(F)F)cc2)c(Cl)cc[n+]1[O-] (single isomer, unassigned) [Example 54a] | 7.47
2. Cc1c(-c2ccc(NC(=O)[C@@H](NC(=O)c3ccnn3C)C3CCCCC3)cc2)c(Cl)cc[n+]1[O-] [Example 45] | 7.59

In one line, give reported pIC50 of the entry Cc1cc[n+]([O-])c(C)c1-c1ccc(NC(=O)C(NC(=O)c2ccnn2C)C2CCC(C(F)(F)F)CC2)cc1F (stereo not drawn) [Example 91] .
7.41
